These measurements were taken from patent US20200368361A1.

System tested: T1, human MSR1 with a C-terminal Myc tag expressed on HEK293.Myc.hMSR1 cells (human, UniProt P21757 1-451)
T1 sequence (looked up): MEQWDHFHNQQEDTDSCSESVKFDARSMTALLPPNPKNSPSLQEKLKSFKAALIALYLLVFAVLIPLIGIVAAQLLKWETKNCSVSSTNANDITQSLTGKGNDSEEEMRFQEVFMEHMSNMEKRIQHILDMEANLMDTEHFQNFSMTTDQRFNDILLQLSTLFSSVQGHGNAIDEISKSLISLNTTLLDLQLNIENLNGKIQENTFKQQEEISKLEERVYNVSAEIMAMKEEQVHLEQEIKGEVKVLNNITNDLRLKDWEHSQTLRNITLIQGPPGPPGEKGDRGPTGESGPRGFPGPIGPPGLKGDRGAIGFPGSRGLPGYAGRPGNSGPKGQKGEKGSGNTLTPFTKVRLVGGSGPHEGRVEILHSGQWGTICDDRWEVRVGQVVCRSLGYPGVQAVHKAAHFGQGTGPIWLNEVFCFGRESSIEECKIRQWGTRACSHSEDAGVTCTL
Run description: cell-based or functional assay
Readout label: IC50 of inhibition of Dil-Acetylated LDL uptake (nM)
Numbers only, in nM.

* H1H27754P-N297Q (antibody, V domains shown) VH: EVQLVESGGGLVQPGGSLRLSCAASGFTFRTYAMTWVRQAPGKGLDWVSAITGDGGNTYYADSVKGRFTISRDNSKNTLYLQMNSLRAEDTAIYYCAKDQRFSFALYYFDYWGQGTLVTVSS VL: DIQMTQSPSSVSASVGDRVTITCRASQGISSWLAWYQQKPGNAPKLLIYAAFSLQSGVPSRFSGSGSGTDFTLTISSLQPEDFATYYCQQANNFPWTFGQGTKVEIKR | 1.8

Switching to the query record.
Query: Can you look up the measured IC50 of inhibition of Dil-Acetylated LDL uptake of H1H21231N (antibody, V domains shown) VH: EVQLVESGGGLVQPGGSLRLSCAASGFTFSDHYMDWVRQAPGKGLEWVGRTRNKANSHTTEYTASVTGRFTISRDDSRNSLYLQMNSLKTEDTAVYYCVRAGIIGTLFDYWGQGTLVTVSS VL: DIQMTQFPSSLSASVGDRVTITCRASQSISSFLNWFQQKPGKAPKFLIYAASSLQSGVPSRFSGSGSGTDFTLTISSLQPEDFATYYCQQSYSSPPITFGQGTRLEIKR for me?
Result: 3.5
